test system: S. cerevisiae BY4741 (wild-type), vegetative growth in YPD; assay: growth sensitivity score (doubling time z-score vs DMSO controls); higher = slower growth, strongly negative scores also mark growth inhibition (complete suppression), active = hit call of the paper
Structures can show the parent of a compound that is named as a salt.
property: growth sensitivity score

Below, each entry is followed by its recorded growth sensitivity score result.
compound	tested system	growth sensitivity score
CN1[C@@H]2CC[C@H]1C[C@@H](OC(=O)c1c[nH]c3ccccc13)C2 [Tropisetron hydrochloride] (stock concentration (mM, diluted 1:100): 7.7)	S. cerevisiae BY4741 (wild-type), vegetative growth in YPD	-0.89 (inactive)
COc1cc2c(cc1OC)C(=O)C(CC1CCN(Cc3ccccc3)CC1)C2 (centres undefined) [Donepezil] (stock concentration (mM, diluted 1:100): 9.1)	S. cerevisiae BY4741 (wild-type), vegetative growth in YPD	2.75 (active)
CCCc1c(OCCCCc2nnn[nH]2)ccc(C(C)=O)c1O (stock concentration (mM, diluted 1:100): 10)	S. cerevisiae BY4741 (wild-type), vegetative growth in YPD	1.14 (inactive)

We next turn to a different compound, shown below.
Prompt line: Need growth sensitivity score of O=C1c2c(O)cc(O)cc2OC(c2ccc(O)c(O)c2)C1O (centres undefined) [Taxifolin] (stock concentration (mM, diluted 1:100): 10) , thanks.
Response line: -0.85 (inactive)

Source: the supplement of paper PMC3414501
